targetOfAssay: blood platelet membrane fibrinogen receptor, glycoprotein IIb-IIIa (Homo sapiens, UniProt P05106+P08514)
Construct: Venous blood from normal donors was drawn; endogenous in cells
methodDescription: Fibrinogen binding to activated gel-filtered platelets, measured with FITC-9F9 by flow cytometry
runParameters: Dixon plot analysis, three experiments; 50 μg/ml fibrinogen; ADP plus epinephrine; read-out: apparent Ki for inhibition of fibrinogen binding
Where no end group is shown, it is not given here.
experimentalReadout: pKi
Quick note: pKi values are minus log10 of concentrations in mol/L.

Challenge: Name the recorded pKi for ARRSPSYYRYDGAGPYYAMDY [Arg-Tyr-Asp-21mer] .
Response given: 5.26

----------
targetOfAssay: glycoprotein IIb-IIIa on activated platelets (Homo sapiens, UniProt P05106+P08514)
Construct: Venous blood from normal donors was drawn; endogenous in cells
methodDescription: Binding of FITC-PAC1 to activated gel-filtered platelets, flow cytometry
runParameters: platelets activated with 10 μM ADP and 10 μM epinephrine; 40 μg/ml FITC-PAC1; 15 min, room temperature; read-out: IC50 for inhibition of the binding of FITC-PAC1 to platelets
pIC50: −log10 of the molar value. Where no end group is shown, it is not given here.
experimentalReadout: pIC50

Challenge: Name the recorded pIC50 for ARRSPSYYRYDGAGPYYAMDY [Arg-Tyr-Asp-21mer] .
Response given: 4.52 to 4.70

----------
targetOfAssay: glycoprotein IIb-IIIa on activated platelets (Homo sapiens, UniProt P05106+P08514)
Construct: Venous blood from normal donors was drawn; endogenous in cells
Sequence (P08514 32-887 limits assumed): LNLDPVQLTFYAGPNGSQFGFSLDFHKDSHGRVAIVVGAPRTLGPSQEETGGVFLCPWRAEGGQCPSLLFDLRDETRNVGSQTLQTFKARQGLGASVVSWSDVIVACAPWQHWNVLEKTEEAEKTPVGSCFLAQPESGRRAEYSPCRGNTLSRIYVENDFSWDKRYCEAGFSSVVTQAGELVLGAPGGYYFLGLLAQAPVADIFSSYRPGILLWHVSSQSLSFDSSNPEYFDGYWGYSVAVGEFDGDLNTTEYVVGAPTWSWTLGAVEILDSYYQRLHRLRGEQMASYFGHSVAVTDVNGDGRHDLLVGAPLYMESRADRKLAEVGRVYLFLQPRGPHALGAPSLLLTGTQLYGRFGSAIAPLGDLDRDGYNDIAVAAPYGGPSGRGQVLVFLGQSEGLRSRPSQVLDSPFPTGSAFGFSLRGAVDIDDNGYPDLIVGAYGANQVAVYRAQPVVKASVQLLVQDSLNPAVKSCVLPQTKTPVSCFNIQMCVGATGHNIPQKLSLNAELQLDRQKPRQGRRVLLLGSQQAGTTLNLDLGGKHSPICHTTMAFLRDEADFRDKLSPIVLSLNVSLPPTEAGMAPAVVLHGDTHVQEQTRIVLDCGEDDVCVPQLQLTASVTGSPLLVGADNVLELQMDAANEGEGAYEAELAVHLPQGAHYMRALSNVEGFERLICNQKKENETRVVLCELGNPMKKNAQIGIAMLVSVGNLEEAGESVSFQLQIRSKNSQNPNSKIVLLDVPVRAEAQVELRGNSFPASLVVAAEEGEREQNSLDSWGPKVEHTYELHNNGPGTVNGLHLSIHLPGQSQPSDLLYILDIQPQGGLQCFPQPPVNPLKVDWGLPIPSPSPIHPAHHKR
Sequence (P05106 27-788): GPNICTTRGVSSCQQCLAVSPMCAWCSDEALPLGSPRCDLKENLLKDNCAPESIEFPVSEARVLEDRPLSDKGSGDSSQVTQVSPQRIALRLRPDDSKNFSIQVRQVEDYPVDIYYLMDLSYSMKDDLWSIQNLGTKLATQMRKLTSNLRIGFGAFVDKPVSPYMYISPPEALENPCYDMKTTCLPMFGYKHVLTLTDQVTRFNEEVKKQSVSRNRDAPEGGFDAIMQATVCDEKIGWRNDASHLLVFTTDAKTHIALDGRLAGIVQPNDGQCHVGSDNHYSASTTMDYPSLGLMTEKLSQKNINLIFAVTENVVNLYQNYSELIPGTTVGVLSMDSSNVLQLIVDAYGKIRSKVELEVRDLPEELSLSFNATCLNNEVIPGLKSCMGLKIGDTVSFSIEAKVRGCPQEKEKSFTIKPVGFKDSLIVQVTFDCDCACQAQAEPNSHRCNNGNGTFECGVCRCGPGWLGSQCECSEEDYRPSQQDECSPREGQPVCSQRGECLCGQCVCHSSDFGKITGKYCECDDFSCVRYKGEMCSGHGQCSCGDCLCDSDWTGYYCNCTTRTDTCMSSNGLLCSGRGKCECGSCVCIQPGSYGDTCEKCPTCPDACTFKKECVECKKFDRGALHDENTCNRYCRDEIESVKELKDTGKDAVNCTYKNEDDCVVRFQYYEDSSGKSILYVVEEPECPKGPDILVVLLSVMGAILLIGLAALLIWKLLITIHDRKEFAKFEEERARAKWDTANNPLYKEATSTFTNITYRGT
methodDescription: Binding of FITC-PAC1 to activated gel-filtered platelets, flow cytometry
runParameters: Dixon plot analysis, five separate experiments, ±SE; read-out: apparent Ki for inhibition of PAC1 binding
Where no end group is shown, it is not given here.
experimentalReadout: pKi
Quick note: pKi values are minus log10 of concentrations in mol/L.

Challenge: Name the recorded pKi for ARRSPSYYRYDGAGPYYAMDY [Arg-Tyr-Asp-21mer] .
Response given: 4.99

Numbers sourced from patent US5169836A.
